Test system: anti-CD28 scFv
Sequence (as listed by the source): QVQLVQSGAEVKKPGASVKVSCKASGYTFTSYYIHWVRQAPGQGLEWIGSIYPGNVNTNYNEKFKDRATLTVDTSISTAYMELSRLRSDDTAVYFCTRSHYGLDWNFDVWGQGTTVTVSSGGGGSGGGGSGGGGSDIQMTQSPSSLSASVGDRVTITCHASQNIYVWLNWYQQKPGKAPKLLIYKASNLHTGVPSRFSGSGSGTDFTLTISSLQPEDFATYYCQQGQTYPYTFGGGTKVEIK
assay.remarks: Phage binding ELISA (panning) of clonal phage on anti-CD28 scFv, with or without CD28 soluble protein
condition.notes: Phage binding ELISA; captured anti-CD28 scFv pre-incubated with CD28 soluble protein
Hi there, I'd appreciate the recorded CD28 scFv signal in presence of CD28 for every entry that follows.
One number for each entry.

Answered examples (5):
[
  {
    "substance": "Phage-99 (MDWCPRYLWNMCFH)",
    "observed": 0.404
  },
  {
    "substance": "Phage-111 (MDWCPFYLWNECFY)",
    "observed": 0.594
  },
  {
    "substance": "Phage-92 (MDWCPRHLWHECFF)",
    "observed": 0.373
  },
  {
    "substance": "Phage-110 (MDWCPRYLWDECFN)",
    "observed": 0.283
  },
  {
    "substance": "Phage-93 (MDWCPRYLWTVCFS)",
    "observed": 0.372
  }
]

I have 8 substances here; please give me CD28 scFv signal in presence of CD28 for each one.
1. Phage-96 (MDWCPRTLWAYCFN)
2. Phage-109 (MDWCPKNLWHVCFN)
3. Phage-87 (MDWCPKDLWYLCFA)
4. Phage-112 (MHWCPRALWDVCYN)
5. Phage-115 (MDWCPRYLWHECFN)
6. Phage-113 (MDWCPRDLWNVCFF)
7. Phage-91 (MDWCPRDLWFLCYN)
8. Phage-98 (MDWCPKYLWDVCFN)

A.
1. 0.584
2. 0.248
3. 0.213
4. 0.240
5. 0.421
6. 0.137
7. 0.424
8. 0.422
